FYI, the data here is from ChEMBL document CHEMBL3885881.

In this section, each of the compounds is paired with its reported TOTAL BILIRUBIN.
- Species on record: Rattus norvegicus
- experimentDescription: DrugMatrix - Regimen: Daily Repeat
- Assay type: toxicity, organism-based, Sprague-Dawley
- Parameters: regimen Daily Repeat, gender Male, age 6-8 weeks
- testContext: in vivo, po, 0 mg/kg, 120 h, tissue Plasma, route oral GAVAGE, dose level Control, time 5 day, […]
measurementKind: TOTAL BILIRUBIN (mg/dL)

compound | unitAbbrev | readoutNumber
CC(C)C(=O)Nc1ccc([N+](=O)[O-])c(C(F)(F)F)c1 [FLUTAMIDE] | mg/dL | 0.17
CN(C)c1nc(N(C)C)nc(N(C)C)n1 | mg/dL | 0.37
C[C@@H]1CN(c2c(F)c(N)c3c(=O)c(C(=O)O)cn(C4CC4)c3c2F)C[C@H](C)N1 | mg/dL | 0.37
O=c1oc2ccccc2c(O)c1Cc1c(O)c2ccccc2oc1=O | mg/dL | 0.17
CCOC(=O)C1=C(COCCN)NC(C)=C(C(=O)OC)C1c1ccccc1Cl (stereo not drawn) | mg/dL | 0.37
CC(C)(Oc1ccc(Cl)cc1)C(=O)O | mg/dL | 0.22
C[C@H]1O[C@@H](O[C@H]2[C@@H](O)C[C@H](O[C@H]3[C@@H](O)C[C@H](O[C@H]4CC[C@@]5(C)[C@H](CC[C@@H]6[C@@H]5C[C@@H](O)[C@]5(C)[C@@H](C7=CC(=O)OC7)CC[C@]65O)C4)O[C@@H]3C)O[C@@H]2C)C[C@H](O)[C@@H]1O | mg/dL | 0.2
OC(Cn1cncn1)(Cn1cncn1)c1ccc(F)cc1F | mg/dL | 0.13

====

- Organism: Rattus norvegicus
- experimentDescription: DrugMatrix - Regimen: Daily Repeat
- Assay type: toxicity, organism-based, Sprague-Dawley
- Parameters: regimen Daily Repeat, gender Male, age 6-8 weeks
- testContext: in vivo, po, 120 mg/kg, […], tissue Blood, route oral GAVAGE, dose level High, time 14 day, vehicle 100 % WATER

molecule | unitAbbrev | ABSOLUTE EOSINOPHIL
COCCc1ccc(OCC(O)CNC(C)C)cc1 (stereo unspecified) | cells/µL | 60

====

- Organism: Rattus norvegicus
- experimentDescription: DrugMatrix - Regimen: Daily Repeat
- Type: toxicity, organism-based, Sprague-Dawley
- Set-up: regimen Daily Repeat, gender Male, age 6-8 weeks
- testContext: in vivo, po, 0 mg/kg, 120 h, tissue Plasma, route oral GAVAGE, dose level Control, time 5 day, […]

molecule | CREATINE PHOSPHOKINASE, u/L
CC(C)C(=O)Nc1ccc([N+](=O)[O-])c(C(F)(F)F)c1 [FLUTAMIDE] | 167.33
CCOC(=O)C1=C(COCCN)NC(C)=C(C(=O)OC)C1c1ccccc1Cl (centres undefined) [AMLODIPINE] | 310.67
CN(C)c1nc(N(C)C)nc(N(C)C)n1 [ALTRETAMINE] | 310.67
CCC(C)n1ncn(-c2ccc(N3CCN(c4ccc(OCC5COC(Cn6cncn6)(c6ccc(Cl)cc6Cl)O5)cc4)CC3)cc2)c1=O (centres undefined) [ITRACONAZOLE] | 448.33
CC(C)(Oc1ccc(Cl)cc1)C(=O)O [CLOFIBRIC ACID] | 317.17
Cc1ccc(-c2cc(C(F)(F)F)nn2-c2ccc(S(N)(=O)=O)cc2)cc1 [CELECOXIB] | 448.33
Cc1oncc1C(=O)Nc1ccc(C(F)(F)F)cc1 [LEFLUNOMIDE] | 199.33
C[C@H]1O[C@@H](O[C@H]2[C@@H](O)C[C@H](O[C@H]3[C@@H](O)C[C@H](O[C@H]4CC[C@@]5(C)[C@H](CC[C@@H]6[C@@H]5C[C@@H](O)[C@]5(C)[C@@H](C7=CC(=O)OC7)CC[C@]65O)C4)O[C@@H]3C)O[C@@H]2C)C[C@H](O)[C@@H]1O [DIGOXIN] | 393.17
C[C@@H]1CN(c2c(F)c(N)c3c(=O)c(C(=O)O)cn(C4CC4)c3c2F)C[C@H](C)N1 [SPARFLOXACIN] | 310.67
O=NN(CCCl)C(=O)NC1CCCCC1 [LOMUSTINE] | 310.67
Cc1noc(NS(=O)(=O)c2ccc(N)cc2)c1C [SULFISOXAZOLE] | 386.17
OC(Cn1cncn1)(Cn1cncn1)c1ccc(F)cc1F [FLUCONAZOLE] | 448.33
O=C(O)CCCc1ccc(N(CCCl)CCCl)cc1 [CHLORAMBUCIL] | 448.33
O=c1oc2ccccc2c(O)c1Cc1c(O)c2ccccc2oc1=O [DICUMAROL] | 287.17
